Assay: Safety index, ratio of IC50 for cytotoxicity against human WI-38 cells to IC50 for antiproliferative activity against human MCF7 cells
Format: toxicity, cell-based
Conditions: WI-38 cells versus MCF7 cells
MEASURED PARAMETER: selectivity ratio
Format: numeric value only, no unit, no commentary.

Take a look at these entries with their results.
C/C(=N\Nc1nc(-c2ccccc2)cs1)c1cc2ccccc2o1 : 4.91
CCOC(=O)Cc1csc(N/N=C(\C)c2cc3ccccc3o2)n1 : 5.61

Tell me its selectivity ratio given C/C(=N\Nc1nc(C)cs1)c1cc2ccccc2o1 as the entry.
9.06

====

Assay: Safety index, ratio of IC50 for cytotoxicity against human WI-38 cells to IC50 for antiproliferative activity against human HepG2 cells
Assay type: toxicity, cell-based
Conditions: WI-38 cells versus HepG2 cells
Each entry below lists one item and its recorded selectivity ratio value.
Format: numeric value only, no unit, no commentary.

C/C(=N\Nc1nc(-c2ccccc2)cs1)c1cc2ccccc2o1 : 4.04
C/C(=N\Nc1nc(C)cs1)c1cc2ccccc2o1 : 11.1

Could you now look at the following compound, please?
Tell me its selectivity ratio given CCOC(=O)Cc1csc(N/N=C(\C)c2cc3ccccc3o2)n1 as the entry.
4.75

Sourced from ChEMBL document CHEMBL4680335
